The reported numbers originate from PubChem BioAssay (NCI).

tested on: HOP-92 NSCLC; experiment: NCI-60 one-dose screen, 48 h; conditions: 10 µM unless noted
This is part of a sample that, as a whole, favours compounds with a hit. Of some 83,000 tested, about 20% had one in any assay. Activity calls are given as the source filed them. How the source made its calls: active means growth percent below 10; inactive means the rest.
The reply should be one of these categories: 1 = active, -1 = inactive

| compound | systemUnderTest | classification |
| --- | --- | --- |
| O=C(O)c1ccccc1Nc1cccc(S(F)(F)(F)(F)F)c1 | HOP-92 NSCLC | -1 |
| O=C1C[C@H](N2C(=O)c3ccccc3S2(=O)=O)C2CO[C@@H]1O2 | HOP-92 NSCLC | -1 |
| N=S(=O)(NC(=O)c1ccc(Cl)cc1Cl)c1ccc(Br)s1 (centres undefined) | HOP-92 NSCLC | -1 |
| NC(N)=Nc1ccc(S(=O)(=O)O)cc1 | HOP-92 NSCLC | -1 |
| CCC(C)[C@@H]1NC(=O)[C@@H]2CCCN2C(=O)[C@H](Cc2ccccc2)NC(=O)[C@@H]2CCCN2C(=O)[C@H](Cc2ccccc2)NC(=O)[C@@H]2CCCN2C(=O)[C@H](Cc2ccccc2)NC1=O (some centres undefined) | HOP-92 NSCLC | -1 |

Input line: Give the logged outcome of this assay for the following compound: COc1nc2c(cc1S(=O)(=O)c1ccccc1)CCc1c-2cnn1-c1ccc(Cl)cc1
Output line: -1

Input line: Same thing, different compound: COCCCN=C(N)c1ccc(NC(=O)c2ccc(C(=O)Nc3ccc(C(N)=NCCCOC)cc3)cc2)cc1
Output line: -1

Input line: Same thing, different compound: O=C1/C(=C/c2ccc(Cl)cc2Cl)CN(S(=O)(=O)c2ccccc2)C/C1=C\c1ccc(Cl)cc1Cl
Output line: 1

Input line: Same thing, different compound: O=C1OC2C(I)C3CC2C1C3c1ccccc1 (centres undefined)
Output line: -1

Input line: Same thing, different compound: COc1ccc(/C=N\NC(=O)c2ccncc2)cc1O
Output line: -1

Input line: Same thing, different compound: Brc1cccc(-c2nc(-c3ccc4c(c3)OCCO4)co2)c1
Output line: -1

Input line: Same thing, different compound: O=C(Cc1ccccc1)c1ccc(Cl)cc1
Output line: -1

Input line: Same thing, different compound: Oc1ccc2c(=S)cc(-c3ccc(Br)cc3)oc2c1O
Output line: 1

Input line: Same thing, different compound: O=C(CN1CCN(c2cc3c(cc2F)c(=O)c(C(=O)O)cn3C2CC2)CC1)Nc1nc(-c2ccc(Cl)cc2)cs1
Output line: 1

Input line: Same thing, different compound: N#Cc1ccc(NC(=O)Nc2ccc(Cc3ccc(NC(=O)Nc4ccc(C#N)cc4)cc3)cc2)cc1
Output line: -1

Input line: Same thing, different compound: CN1CCN(Cc2ccc(NC(=O)c3[nH]ncc3Nc3ncnc4sccc34)cc2)CC1
Output line: 1

Input line: Same thing, different compound: COc1c2ccccc2c(OC)c2[nH]c(=O)ccc12
Output line: -1

Input line: Same thing, different compound: C=C1CCC2C3(C)COC(C)(C)OC3CCC2(C)C1C/C=C1/C(=O)OCC1OC(C)=O (centres undefined)
Output line: -1

Input line: Same thing, different compound: CC(C)[C@H]1COC(=O)N1[C@@H]1C(=O)N([C@@H](CCC(=O)N2CCN(C3CCCC3)CC2)C(=O)N[C@@H]2CCCc3ccccc32)[C@@H]1/C=C/c1cccc(Br)c1
Output line: -1

###

test system: HOP-62 NSCLC; test: NCI-60 one-dose screen, 48 h; details: 10 µM unless noted
The panel holds about 83,000 compounds, 20% with a hit somewhere; the sample as a whole holds those more often. Activity calls are given as the source filed them. The calls were made as follows: active = growth percent below 10; inactive = the rest.
The reply should be one of these categories: true = active, false = inactive

| molecule | systemUnderTest | classification |
| --- | --- | --- |
| O=C(CCCCN1CCOCC1)Nc1ccc(Cn2nnc3c2C(=O)c2nnn(Cc4ccc(NC(=O)CCCCN5CCOCC5)cc4)c2C3=O)cc1 | HOP-62 NSCLC | true |

Input line: Give the logged outcome of this assay for the following molecule: COc1cccc(-n2cc(-c3nc(Nc4cc(C)[nH]n4)c4ccccc4n3)nn2)c1
Output line: false

Input line: Same thing, different molecule: CCN(CC)CCC(=O)Nc1ccc(Cn2nnc3c2C(=O)c2nnn(Cc4ccc(NC(=O)CCN(CC)CC)cc4)c2C3=O)cc1
Output line: true

###

system: NCI-H23 lung; experiment: NCI-60 one-dose screen, 48 h; settings: 10 µM unless noted
About 83,000 compounds went through this panel and 20% of them were active in at least one assay; those are over-represented in the sample as a whole. Calls of active or inactive are those of the source. The calls were made as follows: active = growth percent below 10; inactive = the rest.
The reply should be one of these categories: Yes (active), No (inactive)

Previously resolved entries follow.
| compound | classification |
| --- | --- |
| C=C1CCC2C3(C)COC(c4ccccc4Br)OC3CCC2(C)C1C/C=C1/C(=O)OCC1OC(C)=O (stereo not given) | Yes |
| COc1cc(NCCCCN=C(N)NC(N)=NC(C)C)c2ncccc2c1 | Yes |
| CCCCCCCCCCCCCC(=O)C(C)N (stereo not given) | No |
| O=C(CN1CCN(c2cc3c(cc2F)c(=O)c(C(=O)O)cn3C2CC2)CC1)Nc1cc(=O)[nH]c(=O)[nH]1 | No |
| CC(=O)N1CC(Nc2ccc(OC(F)(F)F)cc2)=CC1=O | No |

Input line: Give the logged outcome of this assay for the following compound: O=[N+]([O-])c1c(F)cccc1Nc1cccc(F)c1
Output line: No

Input line: Same thing, different compound: COc1ccc2nc3cc(Cl)ccc3c(N3CCN(c4nccc(Nc5ccccc5)n4)CC3)c2c1
Output line: No

Input line: Same thing, different compound: Brc1cccc(-c2cc(-c3ccc4c(c3)OCCO4)[nH]n2)c1
Output line: No

Input line: Same thing, different compound: CN(C)C(=O)c1cc2cnc(Nc3ccc(-c4csc5c(=O)cc(N6CCNCC6)oc45)cc3)nc2n1C1CCCC1
Output line: Yes

Input line: Same thing, different compound: COc1cccc(-c2nc3sccn3c2-c2ccnc(NCCCNS(=O)(=O)c3ccc(Cl)cc3)c2)c1
Output line: No

###

system: SF-295 CNS; assay: NCI-60 one-dose screen, 48 h (100 = growth as untreated, 0 = no growth, -100 = all killed); conditions: 10 µM unless noted
This is part of a sample that, as a whole, favours compounds with a hit. Of some 83,000 tested, about 20% had one in any assay.
quantityMeasured: growth (%)
Your answer should be a plain number; it is taken to be in %.

| compound | quantityMeasured | quantityUnit | valueMeasured |
| --- | --- | --- | --- |
| CC(=O)Oc1ccc(Nc2c3ccccc3nc3ccccc23)cc1 | growth | % | -21.8 |
| COc1ccc(-c2cc(-c3ccc(N(C)C)cc3)nc(NC(=O)c3ccncc3)n2)cc1 | growth | % | 105 |
| O=C(O)c1ccccc1Nc1cccc(S(F)(F)(F)(F)F)c1 | growth | % | 99.4 |
| Cn1c(=O)c2[nH]c(C(O)C(O)C(O)C(O)CO)nc2n(C)c1=O (stereo unspecified) | growth | % | 103 |
| CNCc1cccc2c1OCCOCCOCCN(C)S(=O)(=O)c1ccc(cc1)-c1cnc(N)c(n1)C(=O)N2 | growth | % | 87.6 |

Input line: Quick one: growth of O=c1ccc2cc3ccccc3cc2[nH]1 ?
Output line: 95.4

Input line: Same thing, different compound: CNc1nc(C)c(-c2nc(Nc3cccc(S(N)(=O)=O)c3)ncc2F)s1
Output line: 6.78

Input line: Same thing, different compound: OCC1C2C=CC(C2)C1CO (stereo unspecified)
Output line: 104

Input line: Same thing, different compound: COc1ccc(OCC(=O)Nc2ccc(-c3nc4ccccc4s3)cc2C)cc1
Output line: 99.8

Input line: Same thing, different compound: COc1ccc(CN(c2ccc(C)cc2)C2OC(=O)c3ccccc32)cc1OC (stereo unspecified)
Output line: 100

Input line: Same thing, different compound: O=C(Nc1ccc(Nc2cc(Nc3ccccc3)ncn2)cc1)Nc1cc(C(F)(F)F)ccc1F
Output line: 84.2

###

system: HCC-2998 colon; assay: NCI-60 one-dose screen, 48 h (100 = growth as untreated, 0 = no growth, -100 = all killed); settings: 10 µM unless noted
About 83,000 compounds went through this panel and 20% of them were active in at least one assay; those are over-represented in the sample as a whole.
A collection of compounds and their measured growth
Your answer should be a plain number; it is taken to be in %.

Before answering, review these 7 worked examples.
| compound | quantityUnit | growth |
| --- | --- | --- |
| CN1C2CCC1/C(=C\c1ccc(Cl)cc1)C1=C2[C@@H](c2ccc(Cl)cc2)C(C#N)=C(N)O1 (stereo partly drawn) | % | 104 |
| Nc1cccc(-c2nc3sccn3c2-c2ccnc(NCCCNS(=O)(=O)c3ccc(C(F)(F)F)cc3)n2)c1 | % | 18.1 |
| Nc1cc2ccncc2c2ccccc12 | % | 83 |
| CSc1nc(NCCCNc2ccnc3cc(Cl)ccc23)cc(-c2ccccc2)n1 | % | -59.6 |
| O=C(/C=C/c1cccc(Br)c1)c1ccccc1 | % | 96.4 |
| Cl/C(=N\Nc1ccccc1)c1ccccc1 | % | 102 |
| O=C(/C=C\c1cccc([N+](=O)[O-])c1)c1ccccc1 | % | 10.9 |

Please turn your attention to the following entry.
Input line: Quick one: growth of COc1ccc(-c2nn(-c3ccccc3)cc2/C=C/C(=O)OCc2cn(-c3ccc(F)c(Cl)c3)nn2)cc1 ?
Output line: 98.7
